- Tested on: A549 NSCLC
- assay.text: NCI tumour cell line growth inhibition, 48 h
Readings of GI50 for the listed molecules
value.type: GI50

• COc1cc(OC)c(/C=C/c2ccc3ccccc3[n+]2C)c(OC)c1 = 0.748 µM
• O=C(Oc1ccc(O)c2c(=O)n3c(cc12)[nH]c1ccccc13)c1ccccc1 = 24 µM
• Cc1ccc(C(=O)c2oc3ccc4c(C)cc(=O)oc4c3c2C)cc1 = 4.97 µM
• CN(C)CCNc1nc2ccccc2c2c1c1c(n2Cc2ccccc2)-c2ccccc2C1=O = 14.6 µM
• S=C(Nc1ccc(-c2nc3ccccc3[nH]2)cc1)NC1CCCCC1 = 40.3 µM

* * *

- System: NCI-H460 lung
- assay.text: NCI tumour cell line growth inhibition, 48 h
value.type: GI50

• CCCCNc1nc(NC(C)(C)C)nc(NC(C)(C)C)n1 = 5.13 µM
• CC1=CC[C@@H]2CC[C@]3(C)[C@H](CC[C@@H]4[C@@]5(C)CCCNC(C)(C)[C@@H]5CC[C@]43C)[C@H]2[C@@H]1C = 1.48 µM
• COc1cc(OC)c(/C=C/c2ccc3ccccc3[n+]2C)c(OC)c1 = 0.577 µM
• COc1cc(-c2cnn(C)c2)ccc1Nc1ncc2ccnc(N[C@@H](C)C(C)(C)C)c2n1 = 0.819 µM

* * *

Readings of TGI for the listed molecules
- Test system: HS 578T breast
- assay.text: NCI tumour cell line growth inhibition, 48 h
value.type: TGI

* O=[N+]([O-])c1ccc2[nH]cc(-c3c4ccsc4cc4[nH]c5ccc([N+](=O)[O-])cc5c34)c2c1 | 5.49 µM
* CC1=CSC2=NC(c3ccc(Cl)c(Cl)c3)=CC(c3ccc(Cl)cc3)N12 (stereo not drawn) | > 100 µM
* O=C1[C@@H]2Cc3c([nH]c4ccccc34)C(C3CCCCC3)N2C(=O)[C@@H]2CCCN12 (stereo partly drawn) | 68.7 µM
* CCCCCCCCCCCCCCCCCCOCC(O)COP(=O)(O)OCC1OC(n2cc(F)c(=O)[nH]c2=O)CC1O (stereo not drawn) | 23.5 µM
* c1ccc2c(c1)[I+]c1ccccc1-2 | > 50 µM
* CC(C)n1c(=O)n(-c2ccccc2)n(C(C)(C)C)c1=O | > 100 µM
* CC1(C)C=CC[C@]2(C)[C@H]3CC[C@@H]4[C@H]5[C@H](C(=O)/C=C/c6cccnc6)CC[C@]5(CO)CC[C@@]4(C)[C@]3(C)CC[C@@H]12 | 3.89 µM
* CC(C)(C)OC(=O)N1C(OP(=O)(Oc2ccccc2)Oc2ccccc2)=COc2cccnc21 | > 100 µM
* O=C1NC(N/N=C\c2ccccc2)=N/C1=C/c1ccc(Cl)cc1 | 51.4 µM
* Nc1c(C(=O)c2ccccc2)sc2nc(-c3cccs3)ccc12 | 12.7 µM
* N#CCc1nc(C#N)c(N)o1 | > 100 µM
* O=c1cc(-c2ccccc2)[nH]c2cccc(S)c12 | > 100 µM
* O=C1c2cc(Br)ccc2-c2c1c1ccc([N+](=O)[O-])cc1c(=O)n2CCCCl | > 72.5 µM
* COC(OC)C(O)C1OC=CC1n1cnc2c(N)ncnc21 (stereo not drawn) | > 100 µM
* CC(=O)Oc1cc(C)ccc1[C@]1(C)CC[C@H](C)/C1=C\Br | 13.9 µM
* CCN(CC)CCNc1c(OC)cc(C)c2sc3ccccc3c(=O)c12 | 24.8 µM
* O=c1oc2ccccc2c(O)c1/C=N\c1nc(-c2ccccc2)cs1 | 89.7 µM
* COc1cc2ccnc3c2c(c1O)N(C)C=C3 | 53.1 µM
* CCCCN(c1ccccc1)c1ncnc2c1cnn2C | 76.4 µM
* CCCCSc1n/c(=C\c2ccc(N(C)C)cc2)c2nnnn12 | > 100 µM
* O=C1C=CC(=O)c2ncccc21 | 56.4 µM
* CCOC(=O)[C@@H](C)C[C@H](Cc1ccccc1)NC(=O)c1csc([C@@H](C[C@H](C(C)C)N(C)C(=O)[C@@H](NC(=O)[C@H]2C[C@H](O[Si](C)(C)C(C)(C)C)CCN2C)C(C)C)OC(C)=O)n1 | 1.35 µM
* NC(=O)CC(Nc1ncc2c(n1)-c1ccccc1OC2)C(=O)O (stereo not drawn) | > 100 µM
* N#CC1=CNc2sccc2S1(=O)=O | > 100 µM
* O=C(/C=C/c1ccc([N+](=O)[O-])cc1)c1nc2ccccc2[nH]1 | > 100 µM
* Cc1[nH]c(-c2ccccc2)c(-c2ccc(Cl)cc2)c1C(=O)ONC(=O)c1ccccc1 | 5.72 µM
* Cc1ccc(C(=O)c2oc3ccc4c(C)cc(=O)oc4c3c2C)cc1 | > 100 µM
* COc1cc2nc(-c3ccc(C(F)(F)F)cc3)cc(OCCCN3CCOCC3)c2cc1OC | 9.24 µM
